Data provenance: patent US9266870B2

test system: UniProtKB O43614
Sequence (O43614 whole entry): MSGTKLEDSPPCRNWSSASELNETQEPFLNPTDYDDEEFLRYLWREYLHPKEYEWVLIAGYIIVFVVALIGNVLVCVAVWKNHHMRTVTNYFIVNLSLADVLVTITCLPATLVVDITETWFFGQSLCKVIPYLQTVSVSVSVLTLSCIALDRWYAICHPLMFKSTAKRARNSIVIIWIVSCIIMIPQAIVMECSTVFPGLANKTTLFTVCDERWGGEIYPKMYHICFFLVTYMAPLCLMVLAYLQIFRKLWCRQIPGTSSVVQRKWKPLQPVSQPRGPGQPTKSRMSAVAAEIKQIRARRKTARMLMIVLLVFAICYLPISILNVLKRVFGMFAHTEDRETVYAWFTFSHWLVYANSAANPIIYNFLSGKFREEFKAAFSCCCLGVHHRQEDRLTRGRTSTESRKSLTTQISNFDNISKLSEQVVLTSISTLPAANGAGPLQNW
assay comment: Measurement of orexin antagonistic activity (intracellular Ca2+ fluorescence, FDSS), hOX2R
Type: cell-based
quantity measured: IC50 (nM)

* Cc1ccc(-n2nccn2)c(C(=O)N2CCCOC2Cn2ccc(-c3ccc(F)cn3)n2)c1 (single isomer, unassigned; (-)) | 1.2

----------
test system: UniProt O43614
assay comment: Measurement of orexin antagonistic activity (intracellular Ca2+ fluorescence, FDSS), hOX2R
Assay type: cell-based
experimental setup: CHO cells forcibly expressing hOX2R; ligand peptide (modified human orexin-A) 3 nM; maximum fluorescence intensity; read-out: IC50 Value OX2
Categorize each record by its IC50 using low value (below 30 nM), medium value (30 nM to below 200 nM), high value (200 nM or more)

• O=C(c1cc(F)ccc1-n1nccn1)N1CCOC1Cn1ccc(-c2ccc(F)cn2)n1 (racemic) = medium value
• Cc1ccc(-n2nccn2)c(C(=O)N2CCOC2Cn2cc(-c3ccc(F)cc3)cn2)n1 (racemic) = medium value
• O=C(c1cc(F)ccc1-n1nccn1)N1CCCOC1Cn1ccc(-c2ccc(F)cn2)n1 (single isomer, unassigned; (-)) = low value
• Cc1ccc(-c2ncccn2)c(C(=O)N2CCCOC2Cn2cc(-c3ccc(F)cc3)cn2)n1 (single isomer, unassigned; (-)) = low value
• O=C(c1cc(F)ccc1-c1ncccn1)N1CCOC1Cn1ccc(-c2ccc(F)cc2)n1 (racemic) = high value
• O=C(c1cc(F)ccc1-n1nccn1)N1CCOC1Cn1ccc(-c2ccc(F)cc2)n1 (racemic) = high value
• Cc1ccc(-c2ncccn2)c(C(=O)N2CCOC2Cn2cc(-c3ccc(F)cc3)cn2)c1 (racemic) = low value
• Cc1ccc(-c2ncccn2)c(C(=O)N2CCCOC2Cc2noc(-c3ccc(F)cn3)n2)c1 (racemic) = high value
• Cc1ccc(-n2nccn2)c(C(=O)N2[C@H](Cn3cc(-c4ccc(F)cn4)cn3)OCC[C@@H]2C)c1 = medium value
• Cc1ccc(-n2nccn2)c(C(=O)N2CCOC2Cc2ccn(-c3ccc(F)cn3)n2)c1 (single isomer, unassigned; (-)) = low value
• Cc1ccc(-n2nccn2)c(C(=O)N2CCOC2Cc2cnn(-c3ccc(F)cn3)c2)c1 (single isomer, unassigned; (-)) = medium value
• O=C(c1ccccc1-n1nccn1)N1CCOC1Cn1ccc(-c2ccc(F)cn2)n1 (racemic) = high value
• Cc1ccc(-n2nccn2)c(C(=O)N2CCCOC2Cn2cc(-c3ccc(F)cc3)cn2)n1 (single isomer, unassigned; (-)) = low value
